- Test system: MDR1 (P-glycoprotein)
- assay.protocol: in vitro
- Assay type: in vitro ADME, canine
- measurement.conditions: dog, MDCK-MDR1, pH 7.4, MDR1 MDCK; read-out: Recovery B>A n=1
recorded.metric: recovery at 1 h, 10 µM

1. Cc1cc2c(c(C)c1Cl)N(CC(=O)O)C(=O)CO2    62%
2. CC(CSc1ccc(Cl)cc1)C(=O)O (stereo not drawn)    93%
3. Oc1ccc(-c2csc3nc(-c4ccccc4)nn23)c(O)c1    51%
4. CC[C@]1(O)C[C@@H]2CN(CCc3c([nH]c4ccccc34)[C@@](C(=O)OC)(c3cc4c(cc3OC)N(C)[C@H]3[C@@](O)(C(=O)OC)[C@H](OC(C)=O)[C@]5(CC)C=CCN6CC[C@]43[C@@H]65)C2)C1 [Vinblastine, reference compound]    71%
5. Cn1c(C(=O)N[C@@H](C(=O)O)c2ccccc2)cc2cc(F)ccc21    80%
6. CC(C)NCC(O)COc1cccc2ccccc12 (stereo not drawn) [Propranolol, reference compound]    83%
